Collected IC50 values appear next to each entry.
assayed target: USP28 (Homo sapiens (Human))
Sequence (Q96RU2 whole entry): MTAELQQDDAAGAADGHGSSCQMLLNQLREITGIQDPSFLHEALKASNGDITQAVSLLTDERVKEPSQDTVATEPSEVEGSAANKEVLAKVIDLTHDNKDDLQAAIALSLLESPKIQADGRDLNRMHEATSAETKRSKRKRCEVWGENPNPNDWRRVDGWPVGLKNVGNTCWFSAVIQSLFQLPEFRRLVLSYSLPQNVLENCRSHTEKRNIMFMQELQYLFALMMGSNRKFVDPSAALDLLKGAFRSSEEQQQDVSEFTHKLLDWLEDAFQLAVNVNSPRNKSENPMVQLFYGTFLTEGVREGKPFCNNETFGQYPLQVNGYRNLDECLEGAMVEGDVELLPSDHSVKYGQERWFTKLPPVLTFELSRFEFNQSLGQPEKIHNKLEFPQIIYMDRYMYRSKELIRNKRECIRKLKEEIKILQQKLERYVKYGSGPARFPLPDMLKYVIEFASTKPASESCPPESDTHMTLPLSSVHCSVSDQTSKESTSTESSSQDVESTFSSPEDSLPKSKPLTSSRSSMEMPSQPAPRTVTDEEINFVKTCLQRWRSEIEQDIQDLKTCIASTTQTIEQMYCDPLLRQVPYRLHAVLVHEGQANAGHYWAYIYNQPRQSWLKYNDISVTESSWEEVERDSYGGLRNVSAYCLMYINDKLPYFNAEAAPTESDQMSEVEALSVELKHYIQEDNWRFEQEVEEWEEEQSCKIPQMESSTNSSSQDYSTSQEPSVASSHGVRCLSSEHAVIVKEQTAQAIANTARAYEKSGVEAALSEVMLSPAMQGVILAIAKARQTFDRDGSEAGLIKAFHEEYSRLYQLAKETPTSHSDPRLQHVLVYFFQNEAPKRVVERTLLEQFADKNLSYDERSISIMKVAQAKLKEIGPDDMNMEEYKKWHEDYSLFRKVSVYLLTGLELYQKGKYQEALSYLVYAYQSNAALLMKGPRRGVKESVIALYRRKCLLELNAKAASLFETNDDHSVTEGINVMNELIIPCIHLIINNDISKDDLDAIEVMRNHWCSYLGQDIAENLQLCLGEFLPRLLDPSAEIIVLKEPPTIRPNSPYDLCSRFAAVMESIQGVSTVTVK

Give its IC50 value. Item: Cc1ccc2c(N)c(C(=O)NCCc3ccc(N4CCNCC4)c(-c4ccccc4)c3)sc2n1
200 to 2000 nM

Give its IC50 value. Item: Cc1ccc2c(N)c(C(=O)NCCc3ccc(O[C@H]4COC5(CNC5)C4)cc3)sc2n1 (single isomer, unassigned)
200 to 2000 nM

Give its IC50 value. Item: CN[C@@H]1CCN(c2cc(F)c(CCNC(=O)c3sc4nc(C)ccc4c3N)cc2F)C1
< 200 nM

Give its IC50 value. Item: Cc1cc(Cl)nc2sc(C(=O)NCCc3ccc(N4CCNCC4)cc3)c(N)c12
200 to 2000 nM

Give its IC50 value. Item: CN[C@H]1CCN(c2cc(F)c(CCNC(=O)c3sc4nc(C)ccc4c3N)cc2F)C1
200 to 2000 nM

Give its IC50 value. Item: C[C@@H](CNC(=O)c1sc2ncc(F)cc2c1N)c1cc(F)c(N2CC3CCC(C2)N3)cc1F (single isomer, unassigned)
2000 to 10000 nM

Give its IC50 value. Item: CN[C@H]1CN(c2cc(F)c(CCNC(=O)c3sc4nc(C)ccc4c3N)cc2F)C[C@@H]1F (single isomer, unassigned)
200 to 2000 nM

Give its IC50 value. Item: Cc1nc2sc(C(=O)NCCc3ccc(N4CC5CCC(C4)N5)c(C#N)c3)c(N)c2cc1F
200 to 2000 nM

Give its IC50 value. Item: CC(C)Nc1ccc2c(N)c(C(=O)NCCc3ccc(N4CCNCC4)cc3)sc2n1
200 to 2000 nM
